These data points were gathered from patent US20100029554A1.

The binders listed here are annotated with their IC50.
- TGT: T1, GLP-1 receptor, endogenous in RINm5f cells (rat (RIN-m5F are called rat pancreas …, UniProt P32301 22-463))
- T1 construct: whole, on cells; also called GLP-1 receptors; GLP (RIN)
- T1 sequence (looked up): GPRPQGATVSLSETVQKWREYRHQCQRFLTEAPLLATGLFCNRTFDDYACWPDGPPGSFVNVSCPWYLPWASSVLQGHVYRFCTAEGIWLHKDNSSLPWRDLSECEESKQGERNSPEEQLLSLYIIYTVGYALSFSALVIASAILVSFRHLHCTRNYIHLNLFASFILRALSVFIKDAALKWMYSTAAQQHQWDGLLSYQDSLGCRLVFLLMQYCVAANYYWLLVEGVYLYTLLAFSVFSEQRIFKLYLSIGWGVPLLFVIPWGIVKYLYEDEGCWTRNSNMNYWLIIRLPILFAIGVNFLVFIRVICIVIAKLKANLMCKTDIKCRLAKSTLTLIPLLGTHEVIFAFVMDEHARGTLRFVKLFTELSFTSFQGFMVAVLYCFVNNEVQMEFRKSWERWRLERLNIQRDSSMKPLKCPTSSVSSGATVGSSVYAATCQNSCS
- RUN_DESCRIPTION: 125I-GLP-1 displacement, RINm5f membranes
Where no end group is shown, it is not given here.
# value in nM; strip the unit string

Reference set, count: 3
{"BINDER": "HGEGTFTSDLVKILEAEAVRKFIEFLKN-NH2 [Cmpd 5052]", "MEASURED_VALUE": 0.56}
{"BINDER": "HGEGTFTSDVTQQLEEEAVRLFIEWLKQGGPSSGAPPPS-NH2 [Cmpd 5099]", "MEASURED_VALUE": 5}
{"BINDER": "HGEGTFTSDLSKQLEEEAVRLFIEWLKNPGGKEIIS (tested as C-terminal acid (-OH)) [Cmpd 5296]", "MEASURED_VALUE": 4}

Please examine the following record next.
Form field IC50, entry HGEGTYTNDVSSYLEGQAARLFIEWLQGGPSSGAPPPS-NH2 (also: table prints an unexplained underscore after L26) [Cmpd 5183] : 0.31
